Measured values drawn from paper PMC5240567 for this set.

molecular target: HOXB1HD;PBX1HD (;, UniProt P14653;P40424 171-266;227-317, |); assay: fluorescence polarization; HOXB1HD titrated into preformed PBX1HD:control; FP and EMSA: 20 mM Na/K phosphate pH 7.2, 150 mM NaCl, 5% glycerol, 1 mM TCEP, room temperature (FP 9 nM DNA, 30 min; EMSA gel run at 4 C in 0.5x TBE); NMR: 20; conditions: protein: recombinant;recombinant; tags: GST cleaved (pGEX-6P);GST cleaved (pGEX-6P); copies: 1;1; label: 5' 6-FAM (FP); unlabeled in EMSA
Sequence (P14653 171-266, chain 1 of 2): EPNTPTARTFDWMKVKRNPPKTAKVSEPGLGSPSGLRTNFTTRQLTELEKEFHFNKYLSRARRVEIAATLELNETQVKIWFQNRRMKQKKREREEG
Sequence (P40424 227-317, chain 2 of 2): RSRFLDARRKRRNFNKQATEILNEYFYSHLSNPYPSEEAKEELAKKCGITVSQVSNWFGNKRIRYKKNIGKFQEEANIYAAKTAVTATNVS
property name: Kd
Please give the number followed by its unit.

Need Kd of Control (dsDNA) DNA 1: AGGATAACCTGGGATT DNA 2: AATCCCAGGTTATCCT , thanks.
34.7 µM
